Just for reference, ChEMBL document CHEMBL4402594 is where these values come from.

target: L-lactate dehydrogenase B chain (Homo sapiens, UniProt P07195, L4A); test: Binding affinity full length human N-terminal His6-tagged LDH-H L3A mutant expressed in Escherichia coli Rosetta (DE3) assessed as tetrameric disruption by nano differential scanning fluorimetry analysis
Sequence (P07195 2-334 L4A limits assumed): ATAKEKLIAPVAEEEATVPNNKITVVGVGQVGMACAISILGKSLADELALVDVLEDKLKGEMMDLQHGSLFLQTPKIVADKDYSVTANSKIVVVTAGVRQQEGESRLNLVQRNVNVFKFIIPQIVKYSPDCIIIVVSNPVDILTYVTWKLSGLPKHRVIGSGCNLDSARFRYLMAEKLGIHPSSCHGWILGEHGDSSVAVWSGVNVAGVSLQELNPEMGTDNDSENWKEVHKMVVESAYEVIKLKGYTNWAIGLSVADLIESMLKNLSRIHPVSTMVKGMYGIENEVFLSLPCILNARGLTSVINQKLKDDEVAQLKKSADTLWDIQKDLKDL
Structures can show the parent of a compound that is named as a salt.
Readout Label: pEC50
Numbers only, as −log10 of the molar value.

Would you mind telling me what pEC50 value was observed for N=C(N)N [GUANIDINE HYDROCHLORIDE] ?
0.20

* * *

target: L-lactate dehydrogenase B chain (Homo sapiens, UniProt P07195, K5A); test: Binding affinity full length human N-terminal His6-tagged LDH-H K4A mutant expressed in Escherichia coli Rosetta (DE3) assessed as tetrameric disruption by nano differential scanning fluorimetry analysis
Sequence (P07195 2-334 K5A limits assumed): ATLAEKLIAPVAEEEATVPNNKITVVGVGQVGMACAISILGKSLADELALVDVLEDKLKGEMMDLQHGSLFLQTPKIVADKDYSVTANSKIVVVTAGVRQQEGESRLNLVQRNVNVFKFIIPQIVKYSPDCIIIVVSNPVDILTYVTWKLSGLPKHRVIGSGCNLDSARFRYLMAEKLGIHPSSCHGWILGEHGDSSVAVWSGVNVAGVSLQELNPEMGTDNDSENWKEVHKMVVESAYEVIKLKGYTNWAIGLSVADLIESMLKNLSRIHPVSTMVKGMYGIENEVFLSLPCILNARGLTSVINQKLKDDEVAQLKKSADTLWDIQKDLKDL
Where a name gives a salt, the structure may show the parent alone.
Readout Label: EC50 (mM)
Answers are plain numbers, in mM.

Form field - read-out: EC50; system: L-lactate dehydrogenase B chain (Homo sapiens, UniProt P07195, K5A); submitted item: N=C(N)N [GUANIDINE HYDROCHLORIDE]
991
